TEST_SYSTEM: RORγ (Mus musculus, UniProt P51450)
Sequence (P51450 whole entry): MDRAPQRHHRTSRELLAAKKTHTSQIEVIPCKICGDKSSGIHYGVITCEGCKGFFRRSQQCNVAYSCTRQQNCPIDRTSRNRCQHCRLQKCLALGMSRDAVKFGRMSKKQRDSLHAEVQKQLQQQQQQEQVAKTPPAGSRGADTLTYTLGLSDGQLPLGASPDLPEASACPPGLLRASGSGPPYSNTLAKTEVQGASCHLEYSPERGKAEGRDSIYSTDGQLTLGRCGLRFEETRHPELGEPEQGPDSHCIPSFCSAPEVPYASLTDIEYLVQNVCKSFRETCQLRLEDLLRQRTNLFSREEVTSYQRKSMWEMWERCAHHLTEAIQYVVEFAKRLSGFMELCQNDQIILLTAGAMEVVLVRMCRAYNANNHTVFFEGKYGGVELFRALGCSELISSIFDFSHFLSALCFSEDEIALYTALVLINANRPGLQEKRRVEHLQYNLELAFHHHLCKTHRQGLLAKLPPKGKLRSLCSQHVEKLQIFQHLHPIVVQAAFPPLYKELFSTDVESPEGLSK
ASSAY_NOTES: cell-based
Type: cell-based
REPORTED_CONDITIONS: read-out: % increase in RORγ activity (mean ± SD), individual agonist at 1 μM
activation at 1 µM for assorted compounds

[
  {
    "COMPOUND": "O=C(OCc1ccccc1)c1ccccc1O [Benzylsalicylate]",
    "READING_UNIT": "%",
    "activation at 1 µM": 18
  },
  {
    "COMPOUND": "CCCCOC(=O)c1ccc(O)cc1 [Butylparaben, butylparaben]",
    "READING_UNIT": "%",
    "activation at 1 µM": 5
  },
  {
    "COMPOUND": "Cc1ccc(OC(=O)c2ccccc2)cc1 [4-Methylphenylbenzoate]",
    "READING_UNIT": "%",
    "activation at 1 µM": 6
  },
  {
    "COMPOUND": "COc1ccc(C(=O)c2ccc(OC)cc2O)c(O)c1 [Benzophenone-6, benzophenone-6]",
    "READING_UNIT": "%",
    "activation at 1 µM": -1
  },
  {
    "COMPOUND": "COc1ccc(C(=O)c2ccc(C)cc2)c(O)c1 [Benzophenone-10, benzophenone-10]",
    "READING_UNIT": "%",
    "activation at 1 µM": 15
  },
  {
    "COMPOUND": "CCCCCCCOC(=O)c1ccc(O)cc1 [Heptylparaben, heptylparaben]",
    "READING_UNIT": "%",
    "activation at 1 µM": 5
  },
  {
    "COMPOUND": "O=C(OCc1ccccc1)c1ccc(O)cc1 [Benzylparaben, benzylparaben]",
    "READING_UNIT": "%",
    "activation at 1 µM": 13
  },
  {
    "COMPOUND": "O=C(Oc1ccccc1)c1ccc(O)cc1 [Phenylparaben, phenylparaben]",
    "READING_UNIT": "%",
    "activation at 1 µM": 5
  },
  {
    "COMPOUND": "O=C(OCc1ccccc1)c1ccccc1 [Benzylbenzoate]",
    "READING_UNIT": "%",
    "activation at 1 µM": 16
  }
]
